test: Clearance in Beagle dog at 1 mg/kg, iv or 10 mg/kg, po administered via gavage by HPLC-MS/MS analysis; type: ADME, organism-based, Canis lupus familiaris; details: in vivo
reported_endpoint: clearance

In: Could you please provide reported clearance for N[C@H](CO)c1cccc(-c2cccc(COc3ccccc3CC(=O)O)c2)c1 ? Thanks!
Out: 3.8 mL/min/kg

###

assay: Half life in Beagle dog at 1 mg/kg, iv or 10 mg/kg, po administered via gavage by HPLC-MS/MS analysis; format: ADME, organism-based, Canis lupus familiaris; details: in vivo
reported_endpoint: half-life (h)
Write the value in h as a bare number.

In: Could you please provide reported half-life for N[C@H](CO)c1cccc(-c2cccc(COc3ccccc3CC(=O)O)c2)c1 ? Thanks!
Out: 3.8

###

assay: Oral bioavailability in Beagle dog at 10 mg/kg administered via gavage by HPLC-MS/MS analysis; type: ADME, organism-based, Canis lupus familiaris; settings: in vivo
reported_endpoint: bioavailability (%)
Write the value in % as a bare number.

In: Could you please provide reported bioavailability for N[C@H](CO)c1cccc(-c2cccc(COc3ccccc3CC(=O)O)c2)c1 ? Thanks!
Out: 70

###

assay: Oral bioavailability in C57BL/6 mouse 10 mg/kg by HPLC-MS/MS analysis; format: ADME, organism-based; details: C57BL/6, mouse, in vivo
reported_endpoint: bioavailability (%)
Write the value in % as a bare number.

// below: answered molecules
# smiles_structure, unit_abbreviation, bioavailability
records = [
    ("NCc1cccc(-c2cccc(COc3ccccc3CC(=O)O)c2)c1", "%", 100),
    ("NCc1cccc(-c2cccc(C(=O)Nc3ccccc3CC(=O)O)c2)c1", "%", 10),
    ("N[C@H](CCO)c1cccc(-c2cccc(COc3ccccc3CC(=O)O)c2)c1", "%", 39),
]

Now take the following molecule into account.
In: Could you please provide reported bioavailability for N[C@H](CO)c1cccc(-c2cccc(COc3ccccc3CC(=O)O)c2)c1 ? Thanks!
Out: 83
